assaySystem: norepinephrine transporter (NET) (Homo sapiens)
assayProtocol: Fluorescent substrate uptake inhibition, NET
pIC50: −log10 of the molar value.
Known pIC50 of a selection of compounds

{"columns": ["compound", "pIC50"],
 "data": [
  ["O=C1CCCC[C@]1(c1ccccc1)N1CCC1 [Compound 84R]", 4.81],
  ["O=C1CCCC[C@]1(c1ccccc1)N1CCCCC1 [Compound 26R]", 4.63],
  ["O=C1CCCC[C@@]1(c1ccccc1)N1CCCC1 [Compound 27S]", 5.07],
  ["O=C1CCCCC1(c1ccccc1)N1CCCC1 (racemic) [Compound 27rac]", 5.31]
]}

----------
assayProtocol: MLM stability (Low Activity)
Type: in vitro ADME, CD-1 mice
runConditions: male, CD-1, mouse, liver microsomes, pH 7.4, Condition 1 (Low Activity), 0.50 mg protein/mL
If the reported microsomal CLint at 1 μM equals or exceeds 100 µL/min/mg, assign Criterion met. If not, assign Criterion not met.

{"columns": ["compound", "assignedLabel"],
 "data": [
  ["CNC1(c2ccc(C)cc2)CCCCC1=O (racemic)", "Criterion not met"],
  ["O=C1CCCC[C@@]1(c1ccccc1)N1CCCC1 [Compound 27S]", "Criterion not met"],
  ["CCN(CC)[C@]1(c2ccccc2)CCCCC1=O [Compound 25S]", "Criterion met"],
  ["O=C1CCCC[C@]1(c1ccccc1)N1CCOCC1 [Compound 31R]", "Criterion met"],
  ["CC(C)N[C@@]1(c2ccccc2)CCCCC1=O [Compound 28R]", "Criterion met"],
  ["COCCN[C@@]1(c2ccccc2)CCCCC1=O [Compound 29R]", "Criterion not met"],
  ["CNC1(c2ccc(F)cc2)CCCCC1=O (racemic)", "Criterion not met"]
]}

----------
assayProtocol: Oral bioavailability in mice, Method A
Format: in vivo
runConditions: male, mouse, brain, CD-1 mice, 10 mg/kg po
Structures can show the parent of a compound that is named as a salt.
Could you label it rule met if measured Cmax is 3000 ng/g or higher, and rule not met otherwise?

{"columns": ["molecule", "assignedLabel"],
 "data": [
  ["CCNC1(c2cccc(OC)c2)CCCCC1=O (racemic) [Compound 2rac]", "rule not met"],
  ["CNC1(c2ccccc2)CCCCC1=O (racemic) [Compound 14rac, hydrochloride]", "rule met"],
  ["CNC1(c2ccccc2OC)CCCCC1=O (racemic) [Compound 4rac]", "rule not met"],
  ["CN[C@@]1(c2ccccc2)CCCCC1=O [Compound 14R]", "rule met"],
  ["CN[C@]1(c2ccccc2)CCCCC1=O [Compound 14S]", "rule met"]
]}

----------
assayProtocol: Oral bioavailability in mice, Method B
Format: in vivo
runConditions: plasma, CD-1 mice, 10 mg/kg, Method B: based on AUC0-last
# key: entry, value: F
readoutLabel: F

{"columns": ["molecule", "recordedMeasurement"],
 "data": [
  ["N[C@]1(c2ccccc2)CCCCC1=O [Compound 11S, (S)-2-amino-2-phenyl-cyclohexan-1-one]", "123%"],
  ["[2H]C([2H])([2H])N[C@@]1(c2ccccc2)CCCCC1=O [Compound 88R]", "47%"],
  ["CN[C@]1(c2cccc(F)c2)CCCCC1=O [Compound 19S]", "59%"]
]}

----------
assaySystem: norepinephrine transporter (NET) (Homo sapiens, UniProt P23975)
Construct: expressed in transfected cells; host or cells: HEK293
Sequence (P23975 whole entry, species assumed): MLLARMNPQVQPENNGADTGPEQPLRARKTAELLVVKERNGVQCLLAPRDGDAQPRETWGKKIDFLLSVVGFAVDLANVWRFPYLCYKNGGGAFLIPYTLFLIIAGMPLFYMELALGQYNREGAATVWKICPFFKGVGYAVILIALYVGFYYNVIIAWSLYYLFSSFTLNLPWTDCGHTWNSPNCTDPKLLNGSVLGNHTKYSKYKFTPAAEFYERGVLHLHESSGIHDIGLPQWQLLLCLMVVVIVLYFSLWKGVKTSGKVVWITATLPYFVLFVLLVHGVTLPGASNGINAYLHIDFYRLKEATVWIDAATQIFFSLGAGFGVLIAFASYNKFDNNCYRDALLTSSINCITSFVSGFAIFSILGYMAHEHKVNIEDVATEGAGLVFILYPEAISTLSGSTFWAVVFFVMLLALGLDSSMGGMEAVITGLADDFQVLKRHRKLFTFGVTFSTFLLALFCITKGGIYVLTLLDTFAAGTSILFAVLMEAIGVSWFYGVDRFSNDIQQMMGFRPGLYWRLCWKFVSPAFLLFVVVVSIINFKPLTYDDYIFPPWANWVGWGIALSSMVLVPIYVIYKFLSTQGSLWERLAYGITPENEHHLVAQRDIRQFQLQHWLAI
assayProtocol: Fluorescent substrate uptake inhibition, NET
Format: cell-based
runConditions: 10 μM, HEK293 cells expressing NET
Consider the reported inhibition at 10 µM of an entry and match it to a band in band A (below 4%), band B (4% to below 10%), band C (10% or more)

{"columns": ["molecule", "assaySystem", "assignedLabel"],
 "data": [
  ["CN[C@]1(c2ccccc2C)CCCCC1=O [Compound 38S]", "norepinephrine transporter (NET) (Homo sapiens, UniProt P23975)", "band A"],
  ["CN[C@]1(c2ccccc2)CCCCC1=O [Compound 14S]", "norepinephrine transporter (NET) (Homo sapiens, UniProt P23975)", "band A"],
  ["[2H]C([2H])([2H])N[C@]1(c2ccccc2)CCCCC1=O [Compound 88S]", "norepinephrine transporter (NET) (Homo sapiens, UniProt P23975)", "band C"],
  ["CC1CN(C2(c3ccccc3)CCCCC2=O)C1 (racemic)", "norepinephrine transporter (NET) (Homo sapiens, UniProt P23975)", "band C"],
  ["CN[C@@]1(c2cccc(F)c2)CCCCC1=O [Compound 19R]", "norepinephrine transporter (NET) (Homo sapiens, UniProt P23975)", "band B"],
  ["NC1(c2ccc(F)cc2)CCCCC1=O (racemic)", "norepinephrine transporter (NET) (Homo sapiens, UniProt P23975)", "band B"],
  ["O=C1CCCC[C@@]1(NCCF)c1ccccc1 [Compound 86R]", "norepinephrine transporter (NET) (Homo sapiens, UniProt P23975)", "band C"],
  ["[2H]C([2H])([2H])N[C@@]1(c2ccccc2)CCCCC1=O [Compound 88R]", "norepinephrine transporter (NET) (Homo sapiens, UniProt P23975)", "band C"],
  ["N[C@]1(c2ccccc2)CCCCC1=O [Compound 11S, (S)-2-amino-2-phenyl-cyclohexan-1-one]", "norepinephrine transporter (NET) (Homo sapiens, UniProt P23975)", "band C"],
  ["O=C1CCCC[C@]1(c1ccccc1)N1CCOCC1 [Compound 31R]", "norepinephrine transporter (NET) (Homo sapiens, UniProt P23975)", "band A"],
  ["CCN(CC)[C@@]1(c2ccccc2)CCCCC1=O [Compound 25R]", "norepinephrine transporter (NET) (Homo sapiens, UniProt P23975)", "band C"],
  ["O=C1CCCC[C@@]1(NCCO)c1ccccc1 [Compound 30R]", "norepinephrine transporter (NET) (Homo sapiens, UniProt P23975)", "band A"],
  ["N[C@@]1(c2ccccc2)CCCCC1=O [Compound 11R, (R)-2-amino-2-phenyl-cyclohexan-1-one]", "norepinephrine transporter (NET) (Homo sapiens, UniProt P23975)", "band C"]
]}
